The following compounds are listed with their measured IC50 values.
# TEST_SYSTEM: Full length human TNNI3K (hTNNI3K) (Homo sapiens, UniProt Q59H18)
# Construct: His-MBP-TEV-Full length human TNNI3K (hTNNI3K); His (N); MBP (N); TEV cleavage site (N); made in house; host or cells: baculovirus system (printed 'Baculokinase system')
# Sequence (Q59H18 1-835): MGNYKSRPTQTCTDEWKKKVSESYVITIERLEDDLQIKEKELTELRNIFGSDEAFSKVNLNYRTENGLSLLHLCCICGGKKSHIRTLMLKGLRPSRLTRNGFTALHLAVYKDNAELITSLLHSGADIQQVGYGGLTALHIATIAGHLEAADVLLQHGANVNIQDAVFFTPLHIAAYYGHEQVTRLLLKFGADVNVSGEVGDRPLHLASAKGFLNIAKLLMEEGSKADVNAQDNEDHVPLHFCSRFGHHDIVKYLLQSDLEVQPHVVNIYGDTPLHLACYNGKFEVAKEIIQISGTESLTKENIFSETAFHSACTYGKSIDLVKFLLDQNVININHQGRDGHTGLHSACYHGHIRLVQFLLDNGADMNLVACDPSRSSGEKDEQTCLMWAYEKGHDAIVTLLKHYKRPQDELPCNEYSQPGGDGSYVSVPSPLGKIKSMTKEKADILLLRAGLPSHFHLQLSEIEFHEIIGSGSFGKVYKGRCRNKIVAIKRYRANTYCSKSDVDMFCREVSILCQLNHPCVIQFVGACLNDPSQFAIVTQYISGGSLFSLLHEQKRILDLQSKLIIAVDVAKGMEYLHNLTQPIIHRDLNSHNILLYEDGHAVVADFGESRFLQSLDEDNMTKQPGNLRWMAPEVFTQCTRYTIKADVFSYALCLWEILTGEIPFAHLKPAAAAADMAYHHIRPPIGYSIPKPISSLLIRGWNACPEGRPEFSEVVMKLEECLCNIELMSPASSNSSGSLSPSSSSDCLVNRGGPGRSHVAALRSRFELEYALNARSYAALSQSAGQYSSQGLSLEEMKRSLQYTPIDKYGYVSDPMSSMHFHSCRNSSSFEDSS
# EXPERIMENTAL_PROTOCOL: Fluorescent polarization assay of compound inhibition on hTNNI3K ATP binding (Biological Assay Method I)
# CONDITION_INFO: displacement of fluorescent ligand from hTNNI3K ATP binding pocket; mean of a minimum of 2 experiments; read-out: pXC50 (the source's name) (converted)
Counter-ions that a name gives are not always drawn.
ENDPOINT_NAME: IC50

• CNS(=O)(=O)c1ccc(N(C)C)c(Nc2ncnc3cc(N)ccc23)c1 [Example 85] = 10 to 100 nM
• CNS(=O)(=O)c1ccc(SC)c(Nc2ncnc3cc(OC)cc(OC)c23)c1 [Example 53, hydrochloride] = 10 to 100 nM
• CNS(=O)(=O)c1ccc(OCC(F)(F)F)c(Nc2ncnc3cc(OC)cc(OC4CCOCC4)c23)c1 [Example 61] = 10 to 100 nM
• CNS(=O)(=O)c1ccc(OC(C)C(F)(F)F)c(Nc2ncnc3cc(OC)cc(OC)c23)c1 (single isomer, unassigned) [Example 82, hydrochloride] = 1 to 10 nM

====

# TEST_SYSTEM: Full length human TNNI3K (hTNNI3K) (Homo sapiens, UniProt Q59H18)
# Construct: His-MBP-TEV-Full length human TNNI3K (hTNNI3K); His (N); MBP (N); TEV cleavage site (N); made in house; host or cells: baculovirus system (printed 'Baculokinase system')
# Sequence (Q59H18 1-835): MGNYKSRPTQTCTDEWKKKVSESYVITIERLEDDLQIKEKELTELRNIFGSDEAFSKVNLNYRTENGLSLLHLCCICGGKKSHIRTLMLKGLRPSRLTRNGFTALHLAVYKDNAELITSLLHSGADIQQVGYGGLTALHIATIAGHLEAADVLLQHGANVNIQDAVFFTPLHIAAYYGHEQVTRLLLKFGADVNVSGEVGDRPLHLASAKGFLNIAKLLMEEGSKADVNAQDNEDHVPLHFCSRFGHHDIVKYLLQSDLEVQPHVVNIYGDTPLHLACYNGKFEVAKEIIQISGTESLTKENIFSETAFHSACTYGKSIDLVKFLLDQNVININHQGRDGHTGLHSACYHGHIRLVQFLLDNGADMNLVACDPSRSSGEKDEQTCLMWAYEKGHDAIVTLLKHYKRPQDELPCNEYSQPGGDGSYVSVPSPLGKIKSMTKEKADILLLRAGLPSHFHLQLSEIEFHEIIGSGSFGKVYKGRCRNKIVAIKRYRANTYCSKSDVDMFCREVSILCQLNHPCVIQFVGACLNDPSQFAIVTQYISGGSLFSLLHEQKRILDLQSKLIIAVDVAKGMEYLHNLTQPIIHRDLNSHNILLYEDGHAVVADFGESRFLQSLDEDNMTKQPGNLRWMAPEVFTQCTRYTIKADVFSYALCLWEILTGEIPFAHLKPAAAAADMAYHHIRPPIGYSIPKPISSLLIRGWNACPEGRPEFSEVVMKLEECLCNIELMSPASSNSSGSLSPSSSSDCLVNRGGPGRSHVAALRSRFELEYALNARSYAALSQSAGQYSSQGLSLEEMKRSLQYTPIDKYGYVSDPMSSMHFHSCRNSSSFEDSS
# EXPERIMENTAL_PROTOCOL: Fluorescent polarization assay of compound inhibition on hTNNI3K ATP binding (Biological Assay Method I)
# CONDITION_INFO: displacement of fluorescent ligand from hTNNI3K ATP binding pocket; mean of a minimum of 2 experiments; read-out: pXC50 (the source's name) (converted)
Counter-ions that a name gives are not always drawn.
ENDPOINT_NAME: IC50

* CNS(=O)(=O)c1ccc(N(C)C)c(Nc2ncnc3cc(OCCCCl)ccc23)c1 | 0.01 to 0.1 µM
* CNS(=O)(=O)c1ccc(N2CCCCC2)c(Nc2ncnc3cc(OC)c(OC)cc23)c1 [Example 25, trifluoroacetate] | 0.001 to 0.01 µM
* CNS(=O)(=O)c1ccc(N(C)C)c(Nc2ncnc3cc(OCCCOC)ccc23)c1 | 0.001 to 0.01 µM
* CNS(=O)(=O)c1ccc(OCC(F)(F)F)c(Nc2ncnc3cc(OCCOC)c(OCCOC)cc23)c1 | 0.01 to 0.1 µM
* CNS(=O)(=O)c1ccc(OC(F)(F)F)c(Nc2ncnc3cc(OC)c(OC)c(OC)c23)c1 [Example 55, trifluoroacetate] | 0.01 to 0.1 µM
* CCOc1cc2ncnc(Nc3cc(S(=O)(=O)NC)ccc3OCC(F)(F)F)c2cc1OC [Example 80, trifluoroacetate] | 0.01 to 0.1 µM
* CNS(=O)(=O)c1ccc(N(C)C)c(Nc2ncnc3cc(OCCOC)c(OCCOC)cc23)c1 [Example 17, trifluoroacetate] | 0.01 to 0.1 µM
* CNS(=O)(=O)c1ccc(F)c(Nc2ncnc3cc(OC)cc(OC)c23)c1 [Example 38, hydrochloride] | 0.01 to 0.1 µM
* CNS(=O)(=O)c1ccc(OCC(F)(F)F)c(Nc2ncnc3cc(OC)cc(OC(C)C)c23)c1 | 0.01 to 0.1 µM
* CNS(=O)(=O)c1ccc(N(C)C)c(Nc2ncnc3cc(OC)cc(OC)c23)c1 | 0.001 to 0.01 µM
* CNS(=O)(=O)c1ccc(N(C)C)c(Nc2ncnc3cc(OCCCN4CCOCC4)ccc23)c1 [Example 73, hydrochloride] | 0.001 to 0.01 µM
* CNS(=O)(=O)c1cc(Nc2ncnc3cc(OC)c(OC)c(OC)c23)c(OCC(F)(F)F)cc1F [Example 58, trifluoroacetate] | 0.01 to 0.1 µM
* CNS(=O)(=O)c1ccc(OCC(F)(F)F)c(Nc2ncnc3cc(OCCCCl)ccc23)c1 | 0.01 to 0.1 µM
* CNS(=O)(=O)c1ccc(N2C(C)CCC2C)c(Nc2ncnc3ccc(Cl)cc23)c1 (stereo not shown) [Example 28, trifluoroacetate] | 0.01 to 0.1 µM
* CNS(=O)(=O)c1ccc(OCC(F)(F)F)c(Nc2ncnc3cc(OC)c(OC)cc23)c1 [Example 11, hydrochloride] | 0.01 to 0.1 µM
* CNS(=O)(=O)c1ccc(OC(C)C)c(Nc2ncnc3cc(OC)c(OC)cc23)c1 | 0.01 to 0.1 µM
